biological target: D(3) dopamine receptor (Homo sapiens)
Sequence (P35462 whole entry): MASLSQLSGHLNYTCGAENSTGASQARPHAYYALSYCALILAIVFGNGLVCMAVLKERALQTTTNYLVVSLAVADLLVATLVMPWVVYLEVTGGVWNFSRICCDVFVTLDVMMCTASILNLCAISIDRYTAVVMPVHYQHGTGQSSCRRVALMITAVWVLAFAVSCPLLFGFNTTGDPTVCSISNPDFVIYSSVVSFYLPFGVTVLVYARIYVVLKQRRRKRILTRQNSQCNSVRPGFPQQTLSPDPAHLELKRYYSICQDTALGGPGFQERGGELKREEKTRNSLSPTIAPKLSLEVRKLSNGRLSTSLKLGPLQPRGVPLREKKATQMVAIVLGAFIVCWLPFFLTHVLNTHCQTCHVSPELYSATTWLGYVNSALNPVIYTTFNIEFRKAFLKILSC
readoutName: Ki (nM)
Please respond with the number in nM and leave the unit unwritten.

Query :: For D(3) dopamine receptor (Homo sapiens), give Ki of the listed compound: O=c1ccc2ccc(CNCCNc3ccccc3)cc2o1
Result :: 424

###

biological target: 5-hydroxytryptamine receptor 2A (Bos taurus)
Sequence (Q75Z89 whole entry): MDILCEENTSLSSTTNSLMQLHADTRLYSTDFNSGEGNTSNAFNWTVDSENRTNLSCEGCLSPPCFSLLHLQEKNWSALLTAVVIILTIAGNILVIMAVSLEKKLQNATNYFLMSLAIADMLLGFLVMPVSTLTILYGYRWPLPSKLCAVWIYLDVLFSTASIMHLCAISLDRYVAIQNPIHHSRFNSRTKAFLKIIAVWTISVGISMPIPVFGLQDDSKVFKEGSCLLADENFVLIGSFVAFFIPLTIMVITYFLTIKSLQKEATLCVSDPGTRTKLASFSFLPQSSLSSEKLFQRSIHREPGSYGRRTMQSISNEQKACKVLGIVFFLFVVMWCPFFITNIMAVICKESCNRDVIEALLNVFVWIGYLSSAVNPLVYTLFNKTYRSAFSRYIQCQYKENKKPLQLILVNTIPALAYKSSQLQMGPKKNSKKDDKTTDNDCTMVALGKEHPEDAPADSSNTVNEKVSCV
readoutName: Ki

Query :: For 5-hydroxytryptamine receptor 2A (Bos taurus), give Ki of the listed compound: O=c1ccc2ccc(CNCCNc3ccccc3)cc2o1
Result :: > 4.35 µM

Data provenance is ChEMBL document CHEMBL1132384.
